experiment: Safety Test 1: pharmacokinetics of the pyrazolopyrimidinone; format: in vivo; settings: male, human, plasma, Group D: administered with Tamsulosin
readout: Tmax (h)
One number for each entry, in h.

For CCCOc1ccc(S(=O)(=O)NCCC2CCCN2C)cc1-c1nc2c(CCC)nn(C)c2c(=O)[nH]1 (stereo not shown) the molecule record lists Tmax as 1.1

###

test: Safety Test 1: pharmacokinetics of the pyrazolopyrimidinone; type: in vivo; details: male, human, plasma, Group D: administered with Tamsulosin
readout: half-life

For record CCCOc1ccc(S(=O)(=O)NCCC2CCCN2C)cc1-c1nc2c(CCC)nn(C)c2c(=O)[nH]1 (stereo not shown) the listed half-life is 9.9 h
